Recorded values, source PubChem BioAssay.

assayed system: NADPH oxidase 5 (Homo sapiens)
procedure text: compounds shifting NOX5 Amplex Red fluorescence – cell-based, HEK293-NOX5, NOX inhibitor project, primary screen (AID 1161)
recorded conditions: HEK293-NOX5, ionomycin, 45 min, higher = more signal
Rule: fulfilled for z-score not less than 0.2, not fulfilled for anything less.

Q. Decide: z-score of C=CC[C@@]1(C(=O)NCCCOC)N=C(c2ccc(OCCCO)cc2)O[C@@H]1c1ccccc1N=[N+]=[N-] >= 0.2?
A. not fulfilled

Q. Identify whether the reported z-score of the following compound is 0.2 or greater: CC(C)C(CO)N1C(=O)[C@@H]2C3C(=O)OCCC/C=C\[C@H]3OC23C=CCN(c2ccc4ccccc4c2)C(=O)[C@@H]13 (some centres not stated)
A. fulfilled

Q. Decide: z-score of CCOC(=O)C[C@H]1[C@H](OC(=O)c2ccccc2-c2ccccc2)[C@@H](NC(=O)c2ccc3ccccc3n2)c2cc(OCCCO)ccc2N1C(=O)Cc1ccc(OC)cc1 >= 0.2?
A. fulfilled

Q. Is it the case that C=CCC(OC(C)=O)[C@@H]1[C@@H](N(Cc2ccc(-c3cccc(C(F)(F)F)c3)o2)C(=O)Cc2ccc(OC)cc2)c2cc(OCCCO)ccc2N1C(=O)c1ccc(-c2ccccc2)cc1 (some centres not stated) has z-score reaching or exceeding 0.2?
A. not fulfilled

Q. Tell me whether z-score is at least 0.2 here: CC[C@@H]1O[Si](C(C)C)(C(C)C)c2c1cc(-c1cc(C)c(OC)c(C)c1)nc2-c1ccc(Oc2ccccc2)cc1
A. not fulfilled

Q. Could you please find out whether CC(C)[Si]1(C(C)C)OCc2cc(C3CC3)nc(-c3ccc(Oc4ccccc4)cc3)c21 has z-score that meets 0.2 or exceeds it?
A. fulfilled

* * *

procedure text: blockers of DNA damage checkpoint Chk1 activation – imaging, HeLa, hydroxyurea, phospho-Chk1 antibody, percent positive cells, primary screen (AID 1186)
recorded conditions: hydroxyurea-induced phospho-Chk1 immunofluorescence imaging, higher = more signal
Record form. Attribute: z-score. Fill in for each entry.
Returns: the value as a bare number; no unit string appended.

Input Cn1cccc1C(O)C1C=CC2C(=O)N(c3ccccc3)C(=O)C2N1Nc1ccccc1 (configuration not stated) . Output z-score: 0.121

Lab note: measured z-score of CCOC(=O)C[C@H]1[C@H](OC(=O)c2cc3ccccc3oc2=O)[C@@H](NC(=O)CC(C)C)c2cc(OCCCO)ccc2N1C(=O)c1ccc2ccccc2n1 was -0.121

Reported z-score for COC(=O)[C@@]1(Cc2ccc(OC)cc2)[C@H]2c3cc(C(=O)N4CCCC4)n(CCO)c3C[C@H]2CN1C(=O)c1ccccc1 was 1.33

Sample COc1ccc(CCNC(=O)[C@@]2(Sc3ccc(C)cc3)CC(=O)N(Cc3ccccc3C(F)(F)F)[C@@H]2c2ccc(CO)cc2I)cc1 ; z-score observed: 0.17

Field z-score (entry COCCOC(=O)N1C(=O)[C@@]2(c3ccccc31)[C@H](C(=O)NC[C@H](O)c1ccccc1)[C@H]1C(=O)O[C@H](c3ccccc3)[C@H](c3ccccc3)N1[C@@H]2c1ccc(O)cc1 ) reads 0.326

Just so you know, measured z-score for NCCCCCCNC(=O)[C@@H]1C[C@@H]2C(=O)N[C@@H](CCCCN)C(=O)N2[C@@H]1c1ccc(O)cc1 came out at -0.546

Looking up CC(C)C(CO)N1C(=O)[C@@H]2C3C(=O)OCCC/C=C\[C@H]3OC23C=CCN(Cn2nnc4ccccc42)C(=O)[C@@H]13 (some centres not stated) , I found its z-score recorded as -0.833

Record summary for C=CCOC(=O)[C@@H]1[C@H]2C(=O)O[C@H](c3ccccc3)[C@H](c3ccccc3)N2[C@H](c2ccc(OCCOC(=O)[C@@H]3C[C@@H]4C(=O)N[C@@H](CCCC[N+](C)(C)C)C(=O)N4[C@@H]3c3ccc(O)cc3)cc2)[C@@]12C(=O)Nc1ccc(I)cc12 : reported z-score = 0.355

The molecule listed as CCOC(=O)C[C@H]1[C@H](OC(=O)c2ccc(C(=O)c3ccccc3)cc2)[C@@H](NC(=O)c2ccc(-c3ccccc3)cc2)c2cc(OCCCO)ccc2N1C(=O)Cc1ccc(OC)cc1 shows z-score equal to 0.0183

The reported z-score of the molecule COCCOC(=O)N1C(=O)[C@@]2(c3cc(C#CC4(O)CCCCCC4)ccc31)[C@H](c1ccc(O)cc1)N1[C@H](c3ccccc3)[C@H](c3ccccc3)OC(=O)[C@H]1[C@@H]2C(=O)N1CCN(c2ncccn2)CC1 was 0.13

In plain terms, COc1ccc([Si](C)(C)[C@@H]2[C@@H](CC(=O)N3Cc4ccccc4C[C@H]3CO)O[C@]3(C(=O)N(Cc4ccc(N5C(=O)c6cccc7cccc5c67)cc4)c4ccccc43)[C@H]2C)cc1 has a documented z-score of 0.143

z-score measured on COC(=O)[C@@]1(Cc2ccc(F)cc2)[C@H]2c3cc(C(=O)N(C)C)n(CCc4ccc(OC)c(Br)c4)c3C[C@H]2CN1C(=O)c1ccccc1 = -0.316

molecule COCC(=C=CC[C@H](O)c1ccc(CO)o1)CCO , z-score observed: 0.625

Kindly note the recorded z-score for CCOC(=O)C[C@H]1[C@H](OC(=O)c2cc3ccccc3oc2=O)[C@@H](NC(=O)c2ccccc2)c2cc(OCCCO)ccc2N1C(=O)c1ccccc1 , which is 0.171

Documented z-score of C=C[C@@H](CO)N(Cc1ccc(OC)cc1)S(=O)(=O)c1ccc(Br)cc1 : -0.289

Sample O=C1OCCC/C=C\[C@H]2OC34C=CCN(c5ccc6ccccc6c5)C(=O)[C@H]3N(CCO)C(=O)[C@@H]4C12 (some centres not stated) ; z-score observed: -0.234

Briefly, z-score measured for CN1C(=O)C2C=CC(C(O)c3cccn3C)N(Nc3ccc([N+](=O)[O-])cc3[N+](=O)[O-])C2C1=O (configuration not stated) : 0.769

z-score measured on CC(C)[Si]1(C(C)C)OCc2cc(-c3ccc(-c4ccc(Cl)c(Cl)c4)o3)nc(-c3ccccc3)c21 = -0.611

Entry C=CCN1C(=O)[C@]2(CCC(=O)OC(C)(C)C)N=C(c3ccc(OCCCO)cc3)O[C@@H]2c2ccccc21 ; z-score = -0.646

// field: z-score; key: CCCCCN1CC=CC23O[C@@H]4/C=C\CCCOC(=O)C4[C@H]2C(=O)N(C(C)CO)[C@@H]3C1=O (some centres not stated) ; value = -0.107

Please fill in: z-score reported for COC(=O)[C@@]1(Cc2ccccc2)[C@H]2c3cc(C(=O)N4CCCC4)n(CCc4ccccn4)c3C[C@H]2CN1C(=O)c1ccccc1 = 0.249

get_value(item= CCOC(=O)C[C@H]1[C@H](OC(=O)c2ccc(C(=O)c3ccccc3)cc2)[C@@H](NC(=O)CC(C)C)c2cc(OCCCO)ccc2N1C(=O)c1ccccc1 , readout=z-score) returns 0.309

The molecule identified as Cc1ccc(S[C@]2(C(=O)NCC(F)(F)F)CC(=O)N(Cc3cc(C(F)(F)F)cc(C(F)(F)F)c3)[C@@H]2c2ccc(CO)cc2I)cc1 registered its z-score at 0.427

// recorded z-score for Cc1ccc(S[C@]2(C(=O)NCc3ccccc3)CC(=O)N(C3CCCCC3)[C@@H]2c2ccc(CO)cc2I)cc1 : 0.355

Consider NC(=O)[C@@]1(Cc2ccccc2)COC(c2ccc(OCCCO)cc2)=N1 . Its measured z-score is 0.279

Sure, the documented z-score for CC(C)NC(=O)[C@@]1(C)c2ccccc2C(=O)N(Cc2ccc(OC(F)(F)F)cc2)[C@H]1c1ccc(CO)cc1 is -0.0939

Recorded result, NCCCCCNC(=O)[C@@H]1C[C@@H]2C(=O)N[C@@H](CCCCN)C(=O)N2[C@@H]1c1ccc(O)cc1 , z-score: -0.484
